Molecular target: full-length human GLP-1R with an N-terminal FLAG tag (human, UniProt P43220 24-463)
Experiment: cell-based or functional assay
Starred links: 1 amine or outer side, 2 acyl side, 3 side chain; linkers in the order of their positions; H or OH if unused. Non-standard residues stand in square brackets, D forms with d. Groups on a side chain read outwards from the residue. No end group written: not given here. *: point of attachment. G2E3 = linker of 2 Gly and 3 Glu (read GGEEE); C15 diacid = O=C(O)CCCCCCCCCCCCCC(=O)*; γGlu = O=C(O)[C@H](CCC(=O)[*:2])N[*:1]; NMeY = CN[C@@H](Cc1ccc(O)cc1)C(=O)O; AEEA = NCCOCCOCC(=O)O; Aib = CC(C)(N)C(=O)O
MEASURED METRIC: Human GLP1R cAMP HEK293T EC50 (nM)
Numbers only here, please. The scale is nM.

Name the reported Human GLP1R cAMP HEK293T EC50 value associated with the binder Me-Y[Aib]EGTFISDYSIAKDS[Aib]AQ[Aib]NFVNWLLAQSPSSGAPPPS-NH2 (not fully specified (residues 1, 14)) [Compound 154]
288

Can you handle [NMeY][Aib]EGTFISDYSIALDRK([AEEA-AEEA-γGlu-C15 diacid])HQ[Aib]NFVNWLLAQRPSSGAPPPS-OH (also: Me-Tyr methyl position not given here) [Compound 47] next?
110

Can you handle [NMeY][Aib]EGTFISDYSIALDR[Aib]AQ[Aib]K([AEEA-γGlu-γGlu-γGlu-C15 diacid])FVNWLL[Aib]QK-OH (not fully specified) [Compound 40] next?
115

Can you handle Me-Y[Aib]EGTFISDYSIAK([AEEA-γGlu-γGlu-γGlu-C15 diacid])DR[Aib]AQ[Aib]NFVNWLLAQK-NH2 [Compound 23] next?
363

Can you handle [NMeY][Aib]EGTFISDYSI[Aib]KDR[Aib]AQ[Aib]NFVNWLLAQRGGGGS-NH2 (not fully specified (residue 14)) [Compound 134] next?
1000

Can you handle Me-Y[Aib]EGTFISDYSIAK([AEEA-AEEA-γGlu-γGlu-C15 diacid])DR[Aib]AQ[Aib]NFVNWLLAQS (not fully specified (residue 1)) [Compound 16] next?
263

Can you handle [NMeY][Aib]EGTFISDYSIALDR[Aib]K([G2E3-C15 diacid])Q[Aib]NFVNWLLAQSPSSGAPPPS-OH (not fully specified) [Compound 55] next?
240

Can you handle [NMeY][Aib]EGTFISDYSIALDRK([G5-γGlu-C15DA])AQ[Aib]DFVNWLLAQSPSSGAPPPS-NH2 [Compound 132] next?
21.9

Can you handle Y[Aib]EGTFISDYSIALDR[Aib]AQ[Aib]NFVNWLLAQK([G2E3-C15 diacid]) (not fully specified (residue 1, N-terminus); also: Me-Tyr methyl position not given here) [Compound 41] next?
112
